# RECORDED_CONDITIONS: mouse, in vivo
I'd appreciate it if you could supply (AUC0-t)prodrug/(AUC0-t)prototype drug values for the items below.

Give (AUC0-t)prodrug/(AUC0-t)prototype drug for all compounds that follow.
1. CCCSS/C(CCOC(=O)CCC(=O)OC1CCC(N(C)C(=O)c2ccc3nonc3c2)CC1)=C(/C)N(C)C=O (stereo not shown)
2. CCCCCSS/C(CCOC(=O)CCC(=O)OC1CCC(N(C)C(=O)c2ccc3nonc3c2)CC1)=C(/C)N(C)C=O (stereo not shown)
3. CCSS/C(CCOC(=O)CCCC(=O)OC1CCC(N(C)C(=O)c2ccc3nonc3c2)CC1)=C(/C)N(C=O)CC (stereo not shown)
4. C/C(=C(\CCOC(=O)CCC(=O)OC1CCC(N(C)C(=O)c2ccc3nonc3c2)CC1)SSCC(C)C)N(C)C=O (stereo not shown)
5. C/C(=C(\CCOC(=O)CCC(=O)OC1CCC(N(C)C(=O)c2ccc3nonc3c2)CC1)SSC(C)C)N(C)C=O (stereo not shown)
6. CCSS/C(CCOC(=O)CCCC(=O)OC1CCC(N(C)C(=O)c2ccc3nonc3c2)CC1)=C(/C)N(C)C=O (stereo not shown)
7. C/C(=C(\CCOC(=O)CCC(=O)OC1CCC(N(C)C(=O)c2ccc3nonc3c2)CC1)SSCCC(C)C)N(C)C=O (stereo not shown)

Result block:
1. 1.72
2. 1.88
3. 1.55
4. 1.70
5. 1.77
6. 1.74
7. 1.49

----------
# RECORDED_CONDITIONS: mouse, in vivo
RECORDED_METRIC: (AUC0-t)prodrug group/(AUC0-t)prototype drug group
Numbers only.

# example entries with known answers
Query block: Tell me (AUC0-t)prodrug group/(AUC0-t)prototype drug group reported for C/C(=C(\CCOC(=O)CCCC(=O)OC1CCC(N(C)C(=O)c2ccc3nonc3c2)CC1)SSCCC(C)C)N(C=O)CC(=O)OCC1OC(O)C(O)C(O)C1O (stereo not shown)
Result block: 0.73

Query block: Tell me (AUC0-t)prodrug group/(AUC0-t)prototype drug group reported for C/C(=C(\CCOC(=O)CCC(=O)OC1CCC(N(C)C(=O)c2ccc3nonc3c2)CC1)SSCCC(C)C)N(C)C=O (stereo not shown)
Result block: 0.53

Query block: Tell me (AUC0-t)prodrug group/(AUC0-t)prototype drug group reported for CCSS/C(CCOC(=O)CCCC(=O)OC1CCC(N(C)C(=O)c2ccc3nonc3c2)CC1)=C(/C)N(C)C=O (stereo not shown)
Result block: 0.51

Give (AUC0-t)prodrug group/(AUC0-t)prototype drug group for all compounds that follow.
1. CCSS/C(CCOC(=O)CCC(=O)OC1CCC(N(C)C(=O)c2ccc3nonc3c2)CC1)=C(/C)N(C)C=O (stereo not shown)
2. C/C(=C(\CCOC(=O)CCC(=O)OC1CCC(N(C)C(=O)c2ccc3nonc3c2)CC1)SSC(C)C)N(C)C=O (stereo not shown)
3. CCSS/C(CCOC(=O)CCCC(=O)OC1CCC(N(C)C(=O)c2ccc3nonc3c2)CC1)=C(/C)N(C=O)CC (stereo not shown)
4. CCCSS/C(CCOC(=O)CCC(=O)OC1CCC(N(C)C(=O)c2ccc3nonc3c2)CC1)=C(/C)N(C)C=O (stereo not shown)

Result block:
[0.48, 0.62, 0.61, 0.49]

----------
# RECORDED_CONDITIONS: mouse, in vivo
RECORDED_METRIC: (AUC0-t)prodrug group/(AUC0-t)prototype drug group
One number for each entry.

# example entries with known answers
Query block: Tell me (AUC0-t)prodrug group/(AUC0-t)prototype drug group reported for CCCCSS/C(CCOC(=O)CCCC(=O)OC1CCC(N(C)C(=O)c2ccc3nonc3c2)CC1)=C(/C)N(C)C=O (stereo not shown) [Compound 12]
Result block: 0.46

Query block: Tell me (AUC0-t)prodrug group/(AUC0-t)prototype drug group reported for C/C(=C(\CCOC(=O)CCC(=O)OC1CCC(N(C)C(=O)c2ccc3nonc3c2)CC1)SSCC(C)C)N(C)C=O (stereo not shown) [Compound 5]
Result block: 0.67

Query block: Tell me (AUC0-t)prodrug group/(AUC0-t)prototype drug group reported for CCCCCSS/C(CCOC(=O)CCC(=O)OC1CCC(N(C)C(=O)c2ccc3nonc3c2)CC1)=C(/C)N(C)C=O (stereo not shown) [Compound 6]
Result block: 0.62

Now take the following compound into account.
Query block: Tell me (AUC0-t)prodrug group/(AUC0-t)prototype drug group reported for C/C(=C(\CCOC(=O)CCCC(=O)OC1CCC(N(C)C(=O)c2ccc3nonc3c2)CC1)SSCc1ccccc1)N(C)C=O (stereo not shown) [Compound 16]
Result block: 0.41

----------
# RECORDED_CONDITIONS: mouse, in vivo
RECORDED_METRIC: (AUC0-t)prodrug/(AUC0-t)prototype drug
Give bare numbers.

# example entries with known answers
Query block: Tell me (AUC0-t)prodrug/(AUC0-t)prototype drug reported for C/C(=C(\CCOC(=O)CCCC(=O)OC1CCC(N(C)C(=O)c2ccc3nonc3c2)CC1)SSCCC(C)C)N(C=O)CC(=O)OCC1OC(O)C(O)C(O)C1O (stereo not drawn)
Result block: 1.41

Query block: Tell me (AUC0-t)prodrug/(AUC0-t)prototype drug reported for CCCCSS/C(CCOC(=O)CCCC(=O)OC1CCC(N(C)C(=O)c2ccc3nonc3c2)CC1)=C(/C)N(C)C=O (stereo not drawn)
Result block: 1.92

Query block: Tell me (AUC0-t)prodrug/(AUC0-t)prototype drug reported for C/C(=C(\CCOC(=O)CCCC(=O)OC1CCC(N(C)C(=O)c2ccc3nonc3c2)CC1)SSCC(C)C)N(C)C=O (stereo not drawn)
Result block: 1.96

Query block: Tell me (AUC0-t)prodrug/(AUC0-t)prototype drug reported for CCSS/C(CCOC(=O)CCCC(=O)OC1CCC(N(C)C(=O)c2ccc3nonc3c2)CC1)=C(/C)N(C=O)CC(=O)OCC(O)C1OC(=O)C(O)=C1O (stereo not drawn)
Result block: 1.82

Give (AUC0-t)prodrug/(AUC0-t)prototype drug for all compounds that follow.
1. C/C(=C(\CCOC(=O)CCCC(=O)OC1CCC(N(C)C(=O)c2ccc3nonc3c2)CC1)SSCCC(C)C)N(C)C=O (stereo not drawn)
2. CCCCCCSS/C(CCOC(=O)CCCC(=O)OC1CCC(N(C)C(=O)c2ccc3nonc3c2)CC1)=C(/C)N(C=O)CC(=O)OCC1OC(O)C(O)C(O)C1O (stereo not drawn)

Result block:
1: 2.23; 2: 1.68

----------
I'd appreciate it if you could supply (AUC0-t)prodrug/(AUC0-t)prototype drug values for the items below.
# RECORDED_CONDITIONS: mouse, in vivo

Query block: Tell me (AUC0-t)prodrug/(AUC0-t)prototype drug reported for CCCSS/C(CCOC(=O)CCCC(=O)OC1CCC(N(C)C(=O)c2ccc3nonc3c2)CC1)=C(/C)N(C)C=O (stereo not shown)
Result block: 1.86

Query block: Tell me (AUC0-t)prodrug/(AUC0-t)prototype drug reported for CCCCSS/C(CCOC(=O)CCC(=O)OC1CCC(N(C)C(=O)c2ccc3nonc3c2)CC1)=C(/C)N(C)C=O (stereo not shown)
Result block: 1.56

Query block: Tell me (AUC0-t)prodrug/(AUC0-t)prototype drug reported for CCSS/C(CCOC(=O)CCCC(=O)OC1CCC(N(C)C(=O)c2ccc3nonc3c2)CC1)=C(/C)N(C=O)CC(=O)OCC1OC(O)C(O)C(O)C1O (stereo not shown)
Result block: 1.65

Now take the following compound into account.
Query block: Tell me (AUC0-t)prodrug/(AUC0-t)prototype drug reported for C/C(=C(\CCOC(=O)CCC(=O)OC1CCC(N(C)C(=O)c2ccc3nonc3c2)CC1)SSCc1ccccc1)N(C)C=O (stereo not shown)
Result block: 1.73
